# System: Erdman
# method notes: microbe, parasite or virus in culture
# Type: cell-based
# run parameters: Mycobacterium tuberculosis
A collection of compounds and their measured EC50
I only need the number, in nM, no unit after it.

Known results for compounds:
smiles code	EC50, nM
CC(C)/N=c1\cc2n(-c3ccc(Cl)cc3)c3ccccc3nc-2cc1Nc1ccc(Cl)cc1	300
COc1nc2ccc(Br)cc2cc1[C@@H](c1ccccc1)[C@@](O)(CCN(C)C)c1cccc2ccccc12	220

Incoming: Given Cc1cc2nc(SCC(=O)N(C(C)C)C(C)C)[nH]c2cc1C , report its EC50 on Erdman.
Outgoing: 1300

====

# method notes: in vitro
# Format: cell-based
# run parameters: human; 24 h treatment; read-out: HepG2 Cytotoxicity (IC50)
measurement type: IC50 (µg/mL)
Use µg/mL as the unit, but write only the number.

Incoming: Specify reported IC50 for the compound shown: CO[C@@]12[C@H](COC(N)=O)C3=C(C(=O)C(C)=C(N)C3=O)N1C[C@@H]1N[C@@H]12 [Mitomycin C, reference compound]
Outgoing: 23

====

# System: Mtb
# method notes: microbe, parasite or virus in culture
# Format: cell-based, Mycobacterium tuberculosis
# run parameters: Mycobacterium tuberculosis, 144 h; read-out: In vitro EC50
pEC50: −log10 of the molar value.
Use y when the recorded pEC50 is no lower than 6; use n when it is lower.

These solved cases illustrate the format of a correct answer.
molecule	label class
CC(C)N(C(=O)CSc1nc2ccc(Cl)cc2[nH]1)C(C)C [HC2099]	n
Cc1ccc2nc(SCC(=O)N(C(C)C)C(C)C)[nH]c2c1 [HC2183]	n
CC(C)N(C(=O)CNc1nc2cc(Cl)c(Cl)cc2[nH]1)C(C)C [MSU-43165]	y

Incoming: Would you say CC(C)N(C(=O)COc1nc2cc(Cl)c(Cl)cc2[nH]1)C(C)C [MSU-43170] shows pEC50 at minimum 6?
Outgoing: y

====

Each record here notes measured Microsome Stability.
# Type: in vitro ADME, mouse
# run parameters: Table S5, % remaining after 30 minutes with mouse microsomes
A number alone suffices; assume %.

Illustrative cases are given below, each with its answer.
molecule	readout units	Microsome Stability
CC(C)N(C(=O)CNc1nc2cc(Cl)c(Cl)cc2[nH]1)C(C)C [MSU-43165]	%	106
CC(C)N(C(=O)CSc1nc2ccc(Cl)cc2[nH]1)C(C)C [HC2099]	%	71
CC(C)N(C(=O)COc1nc2cc(Cl)c(Cl)cc2[nH]1)C(C)C [MSU-43170]	%	95

We next turn to a different molecule, shown below.
Incoming: Retrieve Microsome Stability measured for Cc1ccc2nc(SCC(=O)N(C(C)C)C(C)C)[nH]c2c1 [HC2183] and print it.
Outgoing: 25

====

# method notes: physchem
# Format: physicochemical
# run parameters: aqueous buffer, kinetic from dmso stock; PBS pH 2.0; read-out: Kinetic solubility pH 2.0
measurement type: solubility kinetic

smiles code	solubility kinetic
CC(C)N(C(=O)CNc1nc2cc(Cl)c(Cl)cc2[nH]1)C(C)C	> 300 µM

Incoming: Please supply the value of reported solubility kinetic for the item CC(C)N(C(=O)COc1nc2cc(Cl)c(Cl)cc2[nH]1)C(C)C
Outgoing: > 300 µM

====

# Test system: primary bone marrow-derived macrophages (BMMΦ)
# run parameters: macrophage CC50 / in vitro Mtb EC50
Reported Si (CC50/EC50) values are given for each entry in this list.

Incoming: For primary bone marrow-derived macrophages (BMMΦ), give the measured Si (CC50/EC50) of the entry CC(C)N(C(=O)CNc1nc2cc(Cl)c(Cl)cc2[nH]1)C(C)C [MSU-43165]
Outgoing: >210

Incoming: Provide Si (CC50/EC50), tested on primary bone marrow-derived macrophages (BMMΦ), for Cc1ccc2nc(SCC(=O)N(C(C)C)C(C)C)[nH]c2c1 [HC2183] .
Outgoing: >11

Incoming: State the measured Si (CC50/EC50) (primary bone marrow-derived macrophages (BMMΦ)) of CC(C)N(C(=O)COc1nc2cc(Cl)c(Cl)cc2[nH]1)C(C)C [MSU-43170]
Outgoing: >667

Incoming: Output reported Si (CC50/EC50) of the molecule CC(C)N(C(=O)CSc1nc2ccc(Cl)cc2[nH]1)C(C)C [HC2099] on primary bone marrow-derived macrophages (BMMΦ).
Outgoing: >13

Incoming: GET Si (CC50/EC50) where system = primary bone marrow-derived macrophages (BMMΦ) and item = Cc1cc2nc(SCC(=O)N(C(C)C)C(C)C)[nH]c2cc1C [MSU-42766]
Outgoing: >61

====

# method notes: in vitro
# Type: cell-based
# run parameters: human; 24 h treatment; read-out: HeLa Cytotoxicity (IC50)
measurement type: IC50 (µg/mL)
Give just the numeric value; µg/mL need not be written.

Incoming: Provide IC50 value for the following compound: CO[C@@]12[C@H](COC(N)=O)C3=C(C(=O)C(C)=C(N)C3=O)N1C[C@@H]1N[C@@H]12 [Mitomycin C, reference compound]
Outgoing: 10.5

====

# method notes: physchem
# Assay type: physicochemical
# run parameters: 37 °C, pH 2, aqueous buffer, kinetic from dmso stock; Table S5; read-out: Kinetic solubility at pH 2.0
measurement type: solubility kinetic

smiles code	reported
CC(C)N(C(=O)CSc1nc2ccc(Cl)cc2[nH]1)C(C)C	> 300 µM

Incoming: Give solubility kinetic for the following compound: Cc1ccc2nc(SCC(=O)N(C(C)C)C(C)C)[nH]c2c1
Outgoing: > 300 µM

====

Readings of IC50 for the listed compounds
# method notes: in vitro
# Type: cell-based
# run parameters: human; 24 h treatment; read-out: THP-1 Cytotoxicity (IC50)
All answers are understood in µg/mL, so give the number only.

compound	IC50 (µg/mL)
CO[C@@]12[C@H](COC(N)=O)C3=C(C(=O)C(C)=C(N)C3=O)N1C[C@@H]1N[C@@H]12 [Mitomycin C, reference compound]	3.09

Here is another compound to look at.
Incoming: Please report the measured IC50 for Cc1cc2nc(SCC(=O)N(C(C)C)C(C)C)[nH]c2cc1C [MSU-42766]
Outgoing: 39.6
